Molecular target: Integrin alpha-IIb/beta-3 (Homo sapiens, UniProt P08514+P05106)
Sequence (P05106 27-788 limits assumed): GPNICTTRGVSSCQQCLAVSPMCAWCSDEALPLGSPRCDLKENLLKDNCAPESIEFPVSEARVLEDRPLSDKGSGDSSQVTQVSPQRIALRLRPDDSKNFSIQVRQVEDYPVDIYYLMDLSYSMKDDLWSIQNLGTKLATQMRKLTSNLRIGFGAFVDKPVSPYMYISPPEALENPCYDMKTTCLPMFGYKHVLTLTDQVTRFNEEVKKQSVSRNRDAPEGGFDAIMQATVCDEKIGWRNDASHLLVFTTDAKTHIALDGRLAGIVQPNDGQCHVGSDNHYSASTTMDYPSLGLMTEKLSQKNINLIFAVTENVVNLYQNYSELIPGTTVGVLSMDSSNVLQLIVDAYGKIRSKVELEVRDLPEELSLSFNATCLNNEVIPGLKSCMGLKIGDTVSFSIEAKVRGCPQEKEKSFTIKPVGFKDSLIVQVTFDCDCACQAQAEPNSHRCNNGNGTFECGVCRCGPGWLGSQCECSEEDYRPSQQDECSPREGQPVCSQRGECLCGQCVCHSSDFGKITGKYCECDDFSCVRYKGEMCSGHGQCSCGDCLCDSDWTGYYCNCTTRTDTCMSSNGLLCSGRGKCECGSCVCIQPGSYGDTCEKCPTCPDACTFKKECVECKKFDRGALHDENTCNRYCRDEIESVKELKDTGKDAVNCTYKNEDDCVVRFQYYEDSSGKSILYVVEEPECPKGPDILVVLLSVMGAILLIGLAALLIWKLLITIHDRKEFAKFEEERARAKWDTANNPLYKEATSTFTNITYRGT
Sequence (P08514 32-887 limits assumed): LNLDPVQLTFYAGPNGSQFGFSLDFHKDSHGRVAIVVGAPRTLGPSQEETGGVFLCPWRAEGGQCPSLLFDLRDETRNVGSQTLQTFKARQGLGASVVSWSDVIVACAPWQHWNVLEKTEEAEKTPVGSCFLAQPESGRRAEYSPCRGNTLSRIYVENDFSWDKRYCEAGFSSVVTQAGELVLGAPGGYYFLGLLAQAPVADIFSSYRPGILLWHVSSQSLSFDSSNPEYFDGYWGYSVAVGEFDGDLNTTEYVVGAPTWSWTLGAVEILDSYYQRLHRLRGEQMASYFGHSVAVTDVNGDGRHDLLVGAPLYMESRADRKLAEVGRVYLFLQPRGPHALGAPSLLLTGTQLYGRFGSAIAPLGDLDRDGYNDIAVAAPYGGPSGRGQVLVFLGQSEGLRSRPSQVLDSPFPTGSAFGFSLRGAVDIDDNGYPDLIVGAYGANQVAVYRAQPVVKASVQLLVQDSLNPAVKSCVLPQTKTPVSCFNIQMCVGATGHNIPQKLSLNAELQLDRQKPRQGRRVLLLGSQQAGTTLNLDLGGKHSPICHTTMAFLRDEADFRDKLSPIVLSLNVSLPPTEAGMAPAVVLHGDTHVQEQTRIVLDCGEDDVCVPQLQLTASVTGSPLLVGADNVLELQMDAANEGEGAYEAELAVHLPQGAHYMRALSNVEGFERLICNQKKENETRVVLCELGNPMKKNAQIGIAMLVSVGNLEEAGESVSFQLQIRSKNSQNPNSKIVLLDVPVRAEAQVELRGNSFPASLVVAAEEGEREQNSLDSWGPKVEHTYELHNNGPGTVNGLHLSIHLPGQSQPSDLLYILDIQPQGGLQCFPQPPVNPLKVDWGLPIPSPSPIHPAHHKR
Sequence (P08514 891-1039 limits assumed): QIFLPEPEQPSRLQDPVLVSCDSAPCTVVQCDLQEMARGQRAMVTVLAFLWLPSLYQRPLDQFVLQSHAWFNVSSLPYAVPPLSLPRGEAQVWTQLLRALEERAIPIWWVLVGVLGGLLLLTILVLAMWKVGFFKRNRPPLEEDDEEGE
Assay: Inhibition of platelet aggregation induced by 20 uM adenosine 5-diphosphate (ADP) in citreated human platelet rich plasma (h-PRP)
value-kind: pIC50
Reminder that pIC50 means the negative base-10 logarithm of the concentration expressed in mol/L.

Value lookup for pIC50; key = Cc1ccc(S(=O)(=O)N[C@@H](CNC(=O)N2CCC3(CC2)C(=O)N(c2ccc(C(=N)N)cc2)C(=O)N3C)C(=O)O)cc1
7.23

And N=C(N)c1ccc(N2C(=O)NC3(CCN(C(=O)NCCC(=O)O)CC3)C2=O)cc1 ?
6.33

And CN1C(=O)N(c2ccc(C(=N)N)cc2)CC12CCN(C(=O)NCCC(=O)O)CC2 ?
6.67

And CN1C(=O)N(c2ccc(C(=N)N)cc2)CC12CCN(C(=O)CC(CC(=O)O)c1ccccc1)CC2 (centres undefined) ?
7.10

And CCCCOC(=O)N[C@@H](CCC(=O)N1CCC2(CC1)CCN(c1ccc(C(=N)N)cc1)C2=O)C(=O)O ?
7.18

And C[C@H](CC(=O)O)NC(=O)N1CCC2(CC1)CCN(c1ccc(C(=N)N)cc1)C2=O ?
7.17

And CCCCOC(=O)N[C@@H](CCC(=O)N1CCC2(CC1)C(=O)N(c1ccc(C(=N)N)cc1)C(=O)N2C)C(=O)O ?
7.19

And CN1C(=O)N(c2ccc(C(=N)N)cc2)C(=O)C12CCN(C(=O)CCCC(=O)O)CC2 ?
6.15

And CN1C(=O)N(c2ccc(C(=N)N)cc2)C(=O)C12CCN(CCCCC(=O)O)CC2 ?
5.12

Entry source: BindingDB's records for doi:10.1021/jm030354b
